Quick reference: melting point of the listed items.

Example results:
1. NS(=O)(=O)NC[C@H]1COc2cc(Cl)c(Cl)cc2O1 ... 119 to 121 °C
2. CN(C)S(=O)(=O)NCC1COc2ccccc2O1 (centres unmarked) ... 76 to 78 °C
3. CN(CC1COc2ccccc2O1)S(N)(=O)=O (centres unmarked) ... 97 to 98 °C

Summary for this molecule, NS(=O)(=O)NCC1CCc2ccccc2O1 (centres unmarked) : melting point is 100 to 101 °C

Summary for this molecule, NS(=O)(=O)NCCC1COc2ccccc2O1 (centres unmarked) : melting point is 101 to 103 °C

These entries and their values trace back to patent US8716231B2.
